# Assay System: Protein cereblon/NAD-dependent protein deacylase sirtuin-6 (Homo sapiens, UniProt Q8N6T7+Q96SW2)
# Sequence (Q8N6T7 whole entry): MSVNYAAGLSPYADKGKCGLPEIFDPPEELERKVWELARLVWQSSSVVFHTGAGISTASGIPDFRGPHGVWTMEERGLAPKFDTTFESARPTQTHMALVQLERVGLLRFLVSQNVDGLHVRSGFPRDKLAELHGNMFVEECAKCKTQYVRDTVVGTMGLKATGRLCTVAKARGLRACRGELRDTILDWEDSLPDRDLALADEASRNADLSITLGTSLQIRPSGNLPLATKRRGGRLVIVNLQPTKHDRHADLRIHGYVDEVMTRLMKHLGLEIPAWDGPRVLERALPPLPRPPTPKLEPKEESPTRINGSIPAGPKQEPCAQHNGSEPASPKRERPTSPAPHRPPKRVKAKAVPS
# Sequence (Q96SW2 whole entry): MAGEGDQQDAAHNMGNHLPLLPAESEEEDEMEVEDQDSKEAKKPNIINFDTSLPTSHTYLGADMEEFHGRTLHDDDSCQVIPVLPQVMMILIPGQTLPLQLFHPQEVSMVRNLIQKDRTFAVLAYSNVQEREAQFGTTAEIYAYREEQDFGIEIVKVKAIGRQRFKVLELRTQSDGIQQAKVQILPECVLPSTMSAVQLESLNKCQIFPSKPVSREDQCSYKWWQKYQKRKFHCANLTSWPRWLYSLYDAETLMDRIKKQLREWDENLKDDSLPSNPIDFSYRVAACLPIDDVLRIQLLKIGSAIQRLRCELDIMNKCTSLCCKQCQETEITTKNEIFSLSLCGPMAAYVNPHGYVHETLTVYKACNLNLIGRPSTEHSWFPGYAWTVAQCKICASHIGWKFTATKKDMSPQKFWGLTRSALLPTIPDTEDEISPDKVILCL
# Assay: PROTAC activity at CRBN/SIRT6 in human Huh-7 cells assessed as induction of SIRT6 degradation incubated for 36 hrs by Western blot analysis
# Format: cell-based
Measure: DC50 (nM)

Compound: Nc1cc(N2CCN(CCCC3CCN(c4cc5c(cc4F)C(=O)N(C4CCC(=O)NC4=O)C5=O)CC3)CC2)ccc1[N+](=O)[O-] (centres undefined)
DC50, nM: 263

1 = Nc1cc(N2CCN(CC3CCN(c4ccc5c(c4)C(=O)N(C4CCC(=O)NC4=O)C5=O)C3)CC2)ccc1[N+](=O)[O-] (centres undefined)
2 = Nc1cc(N2CCN(CC3CCN(c4cc5c(cc4F)C(=O)N(C4CCC(=O)NC4=O)C5=O)CC3)CC2)ccc1[N+](=O)[O-] (centres undefined)
3 = Nc1cc(N2CCN(CC3CCN(c4ccc5c(c4)C(=O)N(C4CCC(=O)NC4=O)C5=O)CC3)CC2)ccc1[N+](=O)[O-] (centres undefined)
Order the entries by their reported DC50, beginning at the minimum. Write the labels in rank order as requested.
2, 3, 1
